Tested on: Saccharomyces cerevisiae
EXPERIMENT_NOTES: protein stability index of tFT-peptide fusion (C-terminal peptide) (PSI (0-1 scale)); higher = more stable (slower turnover)
MEASUREMENT_SETUP: genetic background: cdc34-1; temperature: 37 C
Documented protein stability index across a set of sequences
MEASURED_METRIC: protein stability index

{"columns": ["SEQUENCE_CHAIN", "MEASURED_METRIC", "OBSERVED"],
 "data": [
  ["FFAIFSLLLSFT", "protein stability index", 0.449],
  ["RVGYSIIIIGIE", "protein stability index", 0.351],
  ["FLFFWRASLFFW", "protein stability index", 0.116],
  ["ICQLLKFPLFWC", "protein stability index", 0.542],
  ["VFSLAFYLVLFF", "protein stability index", 0.326],
  ["FSLLLSLSLFHC", "protein stability index", 0.547],
  ["VWYSCWSFLVLF", "protein stability index", 0.444],
  ["PATPPLRFPPSA", "protein stability index", 0.702],
  ["PPPLLVRPWFLV", "protein stability index", 0.618],
  ["WFWVAVGVVGGG", "protein stability index", 0.496],
  ["FVFFRFSLLFFF", "protein stability index", 0.332],
  ["FYPLPASIPDFA", "protein stability index", 0.695],
  ["FSFPAFTFIVSI", "protein stability index", 0.352],
  ["ASICAFFCWFLV", "protein stability index", 0.527],
  ["PTYTKYRTRQIN", "protein stability index", 0.528]
]}

====

Test system: Saccharomyces cerevisiae;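 note: PSI is a weighted mean of sequencing reads over stability bins, variants kept only with over 10 reads, mCherry proximal and sfGFP distal, peptide attached via GGGS linker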
EXPERIMENT_NOTES: protein stability index of tFT-peptide fusion (C-terminal peptide) (PSI (0-1 scale)); higher = more stable (slower turnover)
MEASUREMENT_SETUP: genetic background: das1 deletion; temperature: 37 C

{"columns": ["SEQUENCE_CHAIN", "protein stability index"],
 "data": [
  ["VLGRCWWIVSDL", 0.763],
  ["VGVSVVMVVEVP", 0.0524],
  ["PPPLLVRPWFLV", 0.741],
  ["FGVLLLFLFFLP", 0.467],
  ["LSLSPRLPRLVA", 0.663],
  ["SPCFLDPPRLIS", 0.757],
  ["PPPPPLAIPHPT", 0.684],
  ["LFFVCSGVVFSF", 0.583],
  ["LISRLVLVFVIP", 0.529],
  ["SSRPLSPQSLRL", 0.71],
  ["FWSARAVVWWCW", 0.567],
  ["FLFFWRASLFFW", 0.278],
  ["WRLRIAAVVRSS", 0.647],
  ["FGARCSLSPLVT", 0.746],
  ["WYLLCESCLLCL", 0.562],
  ["SKSRKTGWMLIS", 0.74],
  ["LPTGLKTFLIAF", 0.541],
  ["SFWLFSSIGVCF", 0.578],
  ["GVVVGVLLVCGW", 0.489],
  ["SCIFVSSYFFVF", 0.506],
  ["VLAFFPLFFFLS", 0.573],
  ["TNFVVRLRFVLF", 0.522],
  ["FFVFSFVLFFPL", 0.456],
  ["ALLVLTVSYVFS", 0.188],
  ["VFGFLVFYVCVR", 0.282],
  ["LPLQPPPPVCLP", 0.72],
  ["LLWALGLVLVEG", 0.292],
  ["RFFFASRYIECF", 0.354],
  ["NRFRLFRLNFSV", 0.751],
  ["RWSEHGFLVFLS", 0.741],
  ["FCIIVFYIFVGI", 0.48],
  ["FPFFVFRVWFGA", 0.565],
  ["LCSYSTIPLRLY", 0.695],
  ["PFSLCFVFPFFF", 0.633],
  ["PVWLSFHFFLCA", 0.509],
  ["LLHQSVHSHIPP", 0.733],
  ["FSLLLSLSLFHC", 0.549],
  ["VVVCSLVPLFVL", 0.41],
  ["VLICFSVFSWVV", 0.0531],
  ["FFVLGPVVMSIH", 0.423],
  ["PSCLLVAPRFSS", 0.712],
  ["VFLVFSVWVVYR", 0.357],
  ["FRVFYSFLLCLS", 0.307],
  ["ASSFYVDLVLVS", 0.516],
  ["LPPFGLFLFVFI", 0.517],
  ["GRRPVVDFLPCL", 0.745],
  ["PFLSLPFLFPSS", 0.768],
  ["GSLPERPLRYVC", 0.724],
  ["LSGDIPWSFVPV", 0.787],
  ["ASGFLVIPLWVF", 0.491],
  ["HVSVIRRGICCA", 0.398],
  ["APPLPFPTPPPS", 0.693],
  ["FSLLFVRFCFFL", 0.42],
  ["LSRFGSTCPSGL", 0.765],
  ["CRCLFVVKNWLS", 0.688],
  ["SVFVFFGFIDFL", 0.601],
  ["FAIPFVLFFRVT", 0.333],
  ["WIVQCCLYVPVQ", 0.362],
  ["VSFRISAIFVCV", 0.367],
  ["AFFLLVSLLVSP", 0.219],
  ["SAVLFLLFVYVR", 0.234],
  ["VPPGCSLFAFIL", 0.779],
  ["HVRLRFQPVLFV", 0.549],
  ["PPPPHSAPLFLS", 0.694],
  ["RGWGGGTWVKMG", 0.767],
  ["LFWTLSKYLIIC", 0.491],
  ["VFFLFAVCSVLV", 0.274],
  ["LIVFSGFLFLLS", 0.564],
  ["CLLSRYRVFFLG", 0.706],
  ["CLFRVCLFILSI", 0.489],
  ["RLCKGQKYTKIN", 0.707],
  ["RVGYSIIIIGIE", 0.483],
  ["WAAVGIQLRLLF", 0.474],
  ["AFVVYSGSHGLV", 0.752],
  ["LVCSRFLFAFHC", 0.699],
  ["YVSIWSPILWLA", 0.453]
]}
